Data origin, for the record: patent US6492399B1

Assignment: determine reported neurotransmitter release Emax for the given compounds.
system: Rat brain synaptosomes; experiment: Neurotransmitter release from brain synaptosomes; assay type: biochemical; details: 10 μM ligand; percentage of release with 10 μM (S)-(-)-nicotine or 300 μM TMA
Give bare numbers, in %.

CNC(C)CC=Cc1cncc(C(F)(F)F)c1 (centres unmarked) [Sample No. 10] : 50
CN[C@@H](C)C/C=C/c1cc(OC(C)C)c[n+]([O-])c1 [Sample No. 5] : 19
CNC(C)CC=Cc1ccc[n+]([O-])c1 (centres unmarked) [Sample No. 8] : 9
CC(N)CC=Cc1cncc(OC(C)C)c1 (centres unmarked) [Sample No. 12] : 32

Let's switch to this compound now.
// Input: CNC(C)CC=Cc1cncc(O)c1 (centres unmarked) [Sample No. 13] . Output its neurotransmitter release Emax only.
80
